meta.source: the supplement of paper PMC7214452

# Tested on: Mino (cancer type: Mantle)
# measurement-protocol: normalized area under the dose-response curve (viability relative to DMSO control) (fraction); higher = less sensitive (more viable cells)
# study-conditions: exposure time not given
Structures can show the parent of a compound that is named as a salt.
Answer Not met if normalized area under the dose-response curve is under 0.7, and Met if it is 0.7 or more.

Query :: // inclusive: normalized area under the dose-response curve at least 0.7? input: `COc1cc(Nc2c(C#N)cnc3cc(OCCCN4CCN(C)CC4)c(OC)cc23)c(Cl)cc1Cl`
Result :: Not met

Query :: Does the reported normalized area under the dose-response curve for `Cc1ccc(-n2nc(C(C)(C)C)cc2NC(=O)Nc2ccc(OCCN3CCOCC3)c3ccccc23)cc1` fall at or above the 0.7 mark?
Result :: Met

Query :: Does the compound `Cc1ccc(F)c(NC(=O)Nc2ccc(-c3cccc4[nH]nc(N)c34)cc2)c1` have recorded normalized area under the dose-response curve that is 0.7 or more?
Result :: Met

Query :: Entry CC(C)(C)c1nc(-c2cccc(NS(=O)(=O)c3c(F)cccc3F)c2F)c(-c2ccnc(N)n2)s1 [Dabrafenib mesylate] : is its normalized area under the dose-response curve no less than 0.7?
Result :: Met

Query :: Given `CC(C)C[C@H](NC(=O)[C@H](Cc1ccccc1)NC(=O)c1cnccn1)B(O)O` , state whether its normalized area under the dose-response curve is at least 0.7.
Result :: Not met

Query :: In plain terms: is recorded normalized area under the dose-response curve at least 0.7 for `COc1cc(Nc2ncc3c(n2)-c2ccc(Cl)cc2C(c2c(F)cccc2OC)=NC3)ccc1C(=O)O` ?
Result :: Not met

Query :: Evaluate `CCN(CC)CCNC(=O)c1c(C)[nH]c(/C=C2\C(=O)Nc3ccc(F)cc32)c1C` : normalized area under the dose-response curve at minimum 0.7?
Result :: Met

Query :: I'd appreciate it if you could say whether `CC1(COc2ccc3c(c2)ncn3-c2ccc3cccc(N4CCC(N)CC4)c3n2)COC1` has normalized area under the dose-response curve at least equal to 0.7.
Result :: Met
